B1: OR4K15 (parent)
chain: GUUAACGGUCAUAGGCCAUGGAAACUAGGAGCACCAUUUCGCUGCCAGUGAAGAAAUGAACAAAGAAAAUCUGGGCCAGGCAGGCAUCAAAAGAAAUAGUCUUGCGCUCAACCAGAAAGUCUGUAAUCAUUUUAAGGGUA

# Variants of: B1
# test method notes: self-cleavage, relative activity (ratio to wild type); higher = more cleavage; in vitro, sequencing; the parent is a self-cleaving ribozyme
measurement name: self-cleavage
Give the value as a plain number.

Some entries whose results are on file:
>  <alteration>
A27G A33U

>  <measurement name>
self-cleavage

>  <recorded measurement>
1.16

$$$$
>  <alteration>
A5U A47C

>  <measurement name>
self-cleavage

>  <recorded measurement>
1.29

$$$$

Query (variant): U26A C105A ; field requested: self-cleavage
0.02

Another variant: A92U A94G
1.76
